Below, each entry is listed with its recorded inhibition at 1 µM.
Tested On: panel of 255 wild-type kinases (Homo sapiens)
Sequence (Q9UBS0 whole entry): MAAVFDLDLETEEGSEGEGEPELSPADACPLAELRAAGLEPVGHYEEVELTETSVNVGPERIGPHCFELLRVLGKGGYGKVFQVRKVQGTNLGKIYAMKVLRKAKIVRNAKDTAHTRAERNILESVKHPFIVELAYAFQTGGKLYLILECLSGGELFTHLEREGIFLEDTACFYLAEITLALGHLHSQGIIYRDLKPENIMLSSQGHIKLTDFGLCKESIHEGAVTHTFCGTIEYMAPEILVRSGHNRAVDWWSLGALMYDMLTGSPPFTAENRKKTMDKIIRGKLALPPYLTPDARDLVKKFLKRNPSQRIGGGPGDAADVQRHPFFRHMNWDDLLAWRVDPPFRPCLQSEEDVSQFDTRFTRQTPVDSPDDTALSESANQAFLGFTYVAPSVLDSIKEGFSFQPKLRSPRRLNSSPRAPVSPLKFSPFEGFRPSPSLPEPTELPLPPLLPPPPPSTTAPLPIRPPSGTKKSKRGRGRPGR
Test: Kinase panel profiling at 1 µmol/L (MSA or IMAP), percentage inhibition
Type: biochemical
Conditions: p70S6Kβ; 1 µmol/L single concentration; read-out: %-inhibition, p70S6Kβ
Hi! Could you send only the number? It should be in %, unit omitted.

Look over these answered cases.
# lookup: Cn1cnc2c(F)c(Nc3ccc(Br)cc3Cl)c(C(=O)NOCCO)cc21 on panel of 255 wild-type kinases (Homo sapiens), inhibition at 1 µM = 8

// compound C[C@H]1Oc2cc(cnc2N)-c2c(nn(C)c2C#N)CN(C)C(=O)c2ccc(F)cc21 , assay panel of 255 wild-type kinases (Homo sapiens), inhibition at 1 µM value: 11

So the reported inhibition at 1 µM for C=CC(=O)N1CCC([C@@H]2CCNc3c(C(N)=O)c(-c4ccc(Oc5ccccc5)cc4)nn32)CC1 , on panel of 255 wild-type kinases (Homo sapiens), turned out to be -0.467

Form: item CCN1C(=O)N(c2c(F)c(OC)cc(OC)c2F)Cc2cnc3[nH]c(CN4CCOCC4)cc3c21 ; test system panel of 255 wild-type kinases (Homo sapiens); inhibition at 1 µM: -0.851

// assay panel of 255 wild-type kinases (Homo sapiens), entry CN1CCN(c2ccc(C(=O)Nc3n[nH]c4ccc(Cc5cc(F)cc(F)c5)cc34)c(NC3CCOCC3)c2)CC1 , inhibition at 1 µM value = 0.699

More entries:
Form field, inhibition at 1 µM with panel of 255 wild-type kinases (Homo sapiens), item CO[C@]1(C(=O)N[C@@H](C)c2ccc(-n3cc(F)cn3)nc2)CC[C@H](c2nc(C)cc(Nc3cc(C)[nH]n3)n2)CC1 : 5.54

Reported inhibition at 1 µM (panel of 255 wild-type kinases (Homo sapiens)) for entry CCN1CCN(c2ccc(Nc3cc(N(C)C(=O)Nc4c(Cl)c(OC)cc(OC)c4Cl)ncn3)cc2)CC1 is 5.43

Summary: O=C(Nc1cnn2ccc(N3CCC[C@@H]3c3cc(F)ccc3F)nc12)N1CC[C@H](O)C1 , panel of 255 wild-type kinases (Homo sapiens), inhibition at 1 µM = 4.22

Recorded inhibition at 1 µM for Cn1cc(-c2cc3c(N4CCN(c5ncc([C@@](C)(N)c6ccc(F)cc6)cn5)CC4)ncnn3c2)cn1 on panel of 255 wild-type kinases (Homo sapiens) was 6

Bench note, panel of 255 wild-type kinases (Homo sapiens): entry COC(=O)N[C@@H](C)CNc1nccc(-c2cn(C(C)C)nc2-c2cc(Cl)cc(NS(C)(=O)=O)c2F)n1 , its inhibition at 1 µM = 8

Hey, panel of 255 wild-type kinases (Homo sapiens) data for Cc1cc(Nc2ncnc3ccc(NC4=NC(C)(C)CO4)cc23)ccc1Oc1ccn2ncnc2c1 : inhibition at 1 µM came out at 3.57

Reported panel of 255 wild-type kinases (Homo sapiens) inhibition at 1 µM for item CCc1nc(C(N)=O)c(Nc2ccc(N3CCC(N4CCN(C)CC4)CC3)c(OC)c2)nc1NC1CCOCC1 was 23

panel of 255 wild-type kinases (Homo sapiens) inhibition at 1 µM of CCn1c(=O)c(-c2cc(NC(=O)Nc3ccccc3)c(F)cc2Br)cc2cnc(NC)cc21 is 2.19

Tested on panel of 255 wild-type kinases (Homo sapiens): Cn1cnc2c(F)c(Nc3ccc(Br)cc3F)c(C(=O)NOCCO)cc21 . Observed inhibition at 1 µM: 1.09

Bench note, panel of 255 wild-type kinases (Homo sapiens): Cc1nc(NC(=O)N2CCC[C@H]2C(N)=O)sc1-c1ccnc(C(C)(C)C(F)(F)F)c1 , inhibition at 1 µM reads 4.37
